Ref: PubChem BioAssay (EPA / NIEHS)

Test: ATG_CMV_CIS: Attagene CIS-FACTORIAL HepG2 Assay for human CMV (Internal Marker) (AID 2282928);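 also: endpoint acts as a background internal control marker rather than a target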
Conditions: HepG2 CMV promoter reporter, transcription factor profiling; actives raise or lower the signal
Procedure: ATG_CIS is a cell-based, multiplexed-readout assay that uses HepG2, a human liver cell line, with measurements taken at 24 hours after chemical dosing in a 24-well plate.ATG_CMV_CIS is one of 52 assay component(s) measured or calculated from the ATG_CIS assay. […] This assay endpoint, ATG_CMV_CIS, was analyzed with bidirectional fitting relative to DMSO as the negative control and baseline of activity. […]
The source made the active and inactive calls. The calls were made as follows: active = hit-call score of the fitted dose curve at least 0.9, where 1 is the maximum; inactive = score below 0.9.
Labels: active, inactive

| molecule | assigned label |
| --- | --- |
| CC1(C)NC(=O)N(c2ccc([N+](=O)[O-])c(C(F)(F)F)c2)C1=O | inactive |
| Cc1cccc2ccccc12 | inactive |
| OC12N=C(c3ccccc3)SC1Cc1cc(Cl)ccc12 (stereo unspecified) | inactive |
| CN1C(=O)N(c2ccccc2Br)Cc2cnc(Nc3ccc4c(c3)OCC(CO)O4)nc21 (stereo unspecified) | inactive |
| Clc1ccccc1C(c1ccccc1)(c1ccccc1)n1ccnc1 | active |
| CCO[Si](CCCNC(N)=O)(OCC)OCC | inactive |
